molecular target: KRAS G12C (Homo sapiens, UniProt P01116, C118S/C51S/C80L/G12C); experiment: SOS-catalyzed nucleotide exchange assay, KRAS G12C (Procedure A); conditions: GNE
Sequence (P01116 with tags, fused parts or gaps isoform P01116-2 G12C/C51S/C80L/C118S): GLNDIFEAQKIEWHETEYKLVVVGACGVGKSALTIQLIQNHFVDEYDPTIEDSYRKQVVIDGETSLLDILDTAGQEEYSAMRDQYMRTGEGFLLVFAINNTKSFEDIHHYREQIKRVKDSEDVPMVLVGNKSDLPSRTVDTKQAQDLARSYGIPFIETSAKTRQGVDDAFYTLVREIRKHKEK
measured.quantity: IC50 (µM)

structure: C#Cc1cccc2cccc(-c3nccc4c3sc3nc(OC[C@@]56CCCN5C[C@H](F)C6)nc(N5C[C@H]6CC[C@@H](C5)N6)c34)c12
test.target: KRAS G12C (Homo sapiens, UniProt P01116, C118S/C51S/C80L/G12C)
IC50 (µM): 0.647

P: Cc1cc2[nH]ncc2c(-c2nncc3c2sc2nc(OC[C@@]45CCCN4C[C@H](F)C5)nc(N4C[C@H]5CC[C@@H](C4)N5)c23)c1C(F)(F)F
Q: Cc1cc2[nH]ncc2c(-c2nccc3c2sc2nc(OC[C@@]45CCCN4C[C@H](F)C5)nc(N4C5CNCC4C5)c23)c1C(F)(F)F
Select one: P or Q . Criterion: greater recorded IC50. I would appreciate it if you answered with the label of your choice.
Q

---

molecular target: AsPC-1 cells (Homo sapiens, UniProt P01116, G12D); construct: p-ERK/total ERK AlphaSureFire read-out; experiment: Cellular phospho-ERK assay, AsPC-1 cells (KRAS G12D); conditions: 2 hours, read-out: AsPC1 pERK IC50
Sequence (P01116 1-188 isoform P01116-2 G12D): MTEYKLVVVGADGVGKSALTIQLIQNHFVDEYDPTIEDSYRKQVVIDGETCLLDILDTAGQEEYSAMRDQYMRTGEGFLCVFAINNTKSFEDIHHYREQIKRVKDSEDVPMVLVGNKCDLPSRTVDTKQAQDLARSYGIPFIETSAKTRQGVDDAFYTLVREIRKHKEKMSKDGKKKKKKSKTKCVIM
measured.quantity: IC50 (µM)

Example molecules with recorded IC50:
molecule: CCOC1(COc2nc(N3C[C@H]4CC[C@@H](C3)N4)c3c(n2)sc2c(-c4c(C(F)(F)F)c(C)cc5[nH]ncc45)nccc23)CCOC1 (stereo partly drawn)
reading.unit: µM
IC50: 6.52
//
molecule: Cc1cc2[nH]ncc2c(-c2nccc3c2sc2nc(OC[C@@]45CCCN4C[C@H](F)C5)nc(N4C[C@H]5CC[C@@H](C4)N5CC(C)O)c23)c1C(F)(F)F (stereo partly drawn)
reading.unit: µM
IC50: 2.38
//
molecule: CN(C)C[C@@]1(COc2nc(N3C[C@H]4CC[C@@H](C3)N4)c3c(n2)sc2c(-c4c(C5CC5)c(Cl)cc5[nH]ncc45)nccc23)CC1(F)F
reading.unit: µM
IC50: 0.612

P: C#Cc1c(F)ccc2cc3[nH]ncc3c(-c3nccc4c3sc3nc(OCC5(C#N)CCOCC5)nc(N5C[C@H]6CC[C@@H](C5)N6)c34)c12
Q: C#Cc1c(F)ccc2cc3[nH]ncc3c(-c3nccc4c3sc3nc(OC[C@]5(CN(C)C)CC5(F)F)nc(N5C[C@H]6CC[C@@H](C5)N6)c34)c12
Could you determine which record has the numerically smaller IC50? Candidates: P and Q I would appreciate it if you answered with the label of your choice.
Q
(Q: 0.0228 µM, P: 3.31 µM)

---

molecular target: PANC08.13 cells (Homo sapiens, UniProt P01116, G12D); construct: p-ERK/total ERK AlphaSureFire read-out; assay: Cellular phospho-ERK assay, PANC08.13 cells (KRAS G12D); conditions: 2 hours, read-out: PANCO 813 pERK IC50
measured.quantity: IC50 (µM)

1: Cc1cc2[nH]ncc2c(-c2nccc3c4c(N5CC[C@H]6NCC[C@H]65)nc(OC[C@@]56CCCN5C[C@H](F)C6)nc4n(C)c23)c1C(F)(F)F [Ex-66]
2: CCn1c2nc(OC[C@@]34CCCN3C[C@H](F)C4)nc(N3C[C@H]4CC[C@@H](C3)N4)c2c2ccnc(-c3c(C(F)(F)F)c(C)cc4[nH]ncc34)c21 [Ex-11]
Could you determine which record has the numerically smaller IC50? Candidates: 1 and 2 I would appreciate it if you answered with the label of your choice.
1

---

These records show IC50 for NRAS (Homo sapiens).

Example compounds with recorded IC50:
compound: Cc1cc2[nH]nc(C#N)c2c(-c2nccc3c4c(N5C[C@H]6CC[C@@H](C5)N6)nc(OC[C@@]56CCCN5C[C@H](F)C6)nc4n(C)c23)c1C(F)(F)F (single isomer, unassigned)
test.target: NRAS (Homo sapiens)
Sequence (P01111 with tags, fused parts or gaps): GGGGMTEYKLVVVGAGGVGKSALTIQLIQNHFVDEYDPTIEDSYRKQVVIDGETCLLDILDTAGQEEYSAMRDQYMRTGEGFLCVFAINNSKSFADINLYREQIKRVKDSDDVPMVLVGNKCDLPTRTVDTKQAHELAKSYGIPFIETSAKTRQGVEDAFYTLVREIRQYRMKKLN
IC50: > 11.1 µM
--
compound: Cc1cc2[nH]nc(C#N)c2c(-c2nccc3c2sc2nc(OC[C@@]45CCCN4C[C@H](F)C5)nc(N4C[C@H]5CC[C@@H](C4)N5)c23)c1C(F)(F)F
test.target: NRAS (Homo sapiens)
IC50: > 11.1 µM

Would you kindly look at the next entry?
Hello, I am looking for reported IC50 with NRAS (Homo sapiens) for CC12CC(COc3nc(N4C[C@H]5CC[C@@H](C4)N5)c4c(n3)sc3c(-c5c(C6CC6)c(Cl)cc6[nH]ncc56)nccc34)(CO1)C2 . Could you help?
> 11.1 µM

---

molecular target: KRAS G12D (Homo sapiens, UniProt P01116, G12D); test: SOS-catalyzed nucleotide exchange assay, KRAS G12D (Procedure A); assay type: biochemical; settings: guanine nucleotide exchange (GNE)
Sequence (P01116 with tags, fused parts or gaps isoform P01116-2 G12D): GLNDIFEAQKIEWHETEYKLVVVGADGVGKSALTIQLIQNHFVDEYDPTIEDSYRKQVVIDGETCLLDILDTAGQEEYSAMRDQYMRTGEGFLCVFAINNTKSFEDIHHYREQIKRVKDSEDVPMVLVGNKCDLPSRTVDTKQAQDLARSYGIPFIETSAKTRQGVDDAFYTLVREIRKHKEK
pIC50: −log10 of the molar value.
measured.quantity: pIC50

Example compounds with recorded pIC50:
compound: C#Cc1c(F)ccc2cc3[nH]ncc3c(-c3nccc4c3sc3nc(OC[C@]5(CN6CCC(CCc7cn(C)nn7)CC6)CC5(F)F)nc(N5C[C@H]6CC[C@@H](C5)N6)c34)c12 [Ex-105]
pIC50: 8.80

compound: F[C@H]1CN2CCC[C@@]2(COc2nc(N3C[C@H]4CC[C@@H](C3)N4)c3c(n2)C2(CC2)c2c-3ccnc2-c2c(C3CC3)c(Cl)cc3[nH]ncc23)C1 (single isomer, unassigned) [Ex-115]
pIC50: 8.05

compound: Cc1cc2[nH]ncc2c(-c2nccc3c2sc2nc(OCC4(CO)CCC4)nc(N4C[C@H]5CC[C@@H](C4)N5)c23)c1C(F)F [Ex-64]
pIC50: 5.03

P: Cc1cc2[nH]ncc2c(-c2nccc3c2sc2nc(OC[C@]4(CO)CC4(F)F)nc(N4C[C@H]5CC[C@@H](C4)N5)c23)c1C(F)(F)F [Ex-25]
Q: Fc1ccc2cc3[nH]ncc3c(-c3nccc4c3C3(CC3)c3nc(OC[C@@]56CCCN5C[C@H](F)C6)nc(N5C[C@H]6CC[C@@H](C5)N6)c3-4)c2c1Cl (single isomer, unassigned) [Ex-117]
Could you determine which record has the numerically smaller pIC50? Candidates: P and Q I would appreciate it if you answered with the label of your choice.
P

---

target: KRAS G12D (Homo sapiens, UniProt P01116, G12D); experiment: SOS-catalyzed nucleotide exchange assay, KRAS G12D (Procedure A); type: biochemical; details: guanine nucleotide exchange (GNE)
measured.quantity: IC50 (nM)

Example molecules with recorded IC50:
molecule: Cc1cc2[nH]nc(C#N)c2c(-c2nccc3c2sc2nc(OC[C@@]45CCCN4C[C@H](F)C5)nc(N4C[C@H]5CC[C@@H](C4)N5)c23)c1C(F)(F)F
IC50 [nM]: 23.4

molecule: Cc1cc2[nH]ncc2c(-c2nccc3c4c(N5C[C@H]6CC[C@@H](C5)N6)nc(OC[C@@]56CCCN5C[C@H](F)C6)nc4n(C)c23)c1C(F)(F)F (single isomer, unassigned)
IC50 [nM]: 14.3

1: Cc1cc2[nH]ncc2c(-c2nccc3c2sc2nc(OC[C@@]45CCCN4C[C@H](F)C5)nc(N4[C@@H]5CC[C@H]4CNC5)c23)c1C(F)(F)F
2: F/C=C1\CN2CCC[C@@]2(COc2nc(N3C[C@H]4CC[C@@H](C3)N4)c3c(n2)C2(CC2)c2c-3ccnc2-c2c(C3CC3)c(Cl)cc3[nH]ncc23)C1 (single isomer, unassigned)
3: Cc1cc2[nH]ncc2c(-c2nccc3c2sc2nc(OC[C@H]4C[C@H](C#N)C4)nc(N4C[C@H]5CC[C@@H](C4)N5)c23)c1C(F)(F)F
Please list these in order of increasing IC50. Thank you! Rank them, then answer with their labels in that order.
2, 1, 3

---

target: KRAS WT (Homo sapiens); test: SOS-catalyzed nucleotide exchange assay, KRAS WT (Procedure B; Example 14); type: biochemical; set-up: KRAS WT (amino acids 1-169, N-terminal His-tag); made in house; host or cells: E. coli; settings: 1 hour compound incubation, SOS1 and GMPPNP 30 minutes, read-out: KRAS WT GNE IC50
Sequence (P01116 with tags, fused parts or gaps isoform P01116-2): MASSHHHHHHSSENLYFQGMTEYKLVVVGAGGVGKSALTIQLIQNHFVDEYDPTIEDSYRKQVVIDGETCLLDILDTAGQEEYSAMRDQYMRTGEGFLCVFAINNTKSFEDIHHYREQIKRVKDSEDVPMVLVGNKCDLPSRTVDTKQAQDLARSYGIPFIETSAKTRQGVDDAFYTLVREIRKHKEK
pIC50: −log10 of the molar value.
measured.quantity: pIC50

Name the recorded pIC50 for FC(F)c1ccc2[nH]ncc2c1-c1nccc2c1sc1nc(OC[C@@]34CCCN3C[C@H](F)C4)nc(N3C[C@H]4CC[C@@H](C3)N4)c12 [Ex-14] .
< 5.30

---

Target: KRAS G12C (Homo sapiens, UniProt P01116, C118S/C51S/C80L/G12C)
Experiment: SOS-catalyzed nucleotide exchange assay, KRAS G12C (Procedure A)
Details: GNE
Protocol: Procedure for SOS-Catalyzed Nucleotide Exchange Assay for KRAS-WT, G12C/D/V, G13D, HRAS, and NRAS (Procedure A) Recombinant KRAS-G12C protein used in this assay has an additional triple mutation (C51S/C80L/C118S). […] The time-resolved fluorescence resonance energy transfer (TR-FRET) signal is measured on an Envision (PerkinElmer) plate reader: Excitation filter=340 nm; emission1=495 nm; emission2=520 nm; dichroic mirror=D400/D505; delay time=100 ms. […]
measured.quantity: IC50 (nM)

1: Fc1ccc2cc3[nH]ncc3c(-c3nccc4c3sc3nc(OC[C@@]56CCCN5C[C@H](F)C6)nc(N5C[C@H]6CC[C@@H](C5)N6)c34)c2c1Cl
2: CN(C)C[C@@]1(COc2nc(N3C[C@H]4CC[C@@H](C3)N4)c3c(n2)sc2c(-c4c(C5CC5)c(Cl)cc5[nH]ncc45)nccc23)CC1(F)F
Select one: 1 or 2 . Criterion: greater recorded IC50. I would appreciate it if you answered with the label of your choice.
2
